- Target Of Assay: T1, FZD4 cysteine-rich domain (CRD), MYC-tagged and GPI-anchored on CHO cells (human, UniProt Q9ULV1 42-167, GPI anchor)
- T1 construct: also called FZD4 CRD; CHO-myc-FZDGPI; not shown: MYC tag and GPI anchor signal
- T1 sequence: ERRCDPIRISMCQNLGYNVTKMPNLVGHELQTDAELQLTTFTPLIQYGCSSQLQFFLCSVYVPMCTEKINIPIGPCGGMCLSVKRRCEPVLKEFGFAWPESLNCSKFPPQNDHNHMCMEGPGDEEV
- Protocol Description: flow cytometry, CHO-CRD cells;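 also: flow cytometry of Fab binding to CHO cells overexpressing a Frizzled CRD, with binding defined as median fluorescence over twice that of CHO cells lacking any Frizzled CRD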
In this section, each of the binders is paired with its reported median fluorescence.
Please reply with the number alone, leaving off any unit.

A selection of reference data follows.
Binder	median fluorescence
Fab-2929 (Fab, V domains shown, Fab; also called Fv-2929) VH: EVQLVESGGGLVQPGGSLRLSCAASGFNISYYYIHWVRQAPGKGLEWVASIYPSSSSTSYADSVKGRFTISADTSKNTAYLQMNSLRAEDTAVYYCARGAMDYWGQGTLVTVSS VL: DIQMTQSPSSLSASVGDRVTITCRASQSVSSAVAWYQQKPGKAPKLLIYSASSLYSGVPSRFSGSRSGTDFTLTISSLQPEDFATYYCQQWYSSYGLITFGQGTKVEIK	3.72
Fab-2905 (Fab, V domains shown, Fab; also called Fv-2905) VH: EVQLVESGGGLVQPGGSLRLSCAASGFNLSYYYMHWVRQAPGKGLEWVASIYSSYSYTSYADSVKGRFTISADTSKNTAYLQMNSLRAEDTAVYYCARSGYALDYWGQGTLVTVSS VL: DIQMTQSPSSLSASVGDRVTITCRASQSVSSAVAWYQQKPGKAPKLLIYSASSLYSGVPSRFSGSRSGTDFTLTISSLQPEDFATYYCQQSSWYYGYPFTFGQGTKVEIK	4.57

Please find the next binder below.
## Input Entry Fab-2903 (Fab, V domains shown, Fab; also called Fv-2903) VH: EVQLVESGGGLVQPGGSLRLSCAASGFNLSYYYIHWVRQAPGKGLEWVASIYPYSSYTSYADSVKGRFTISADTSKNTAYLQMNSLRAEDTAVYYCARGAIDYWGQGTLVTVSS V domain: DIQMTQSPSSLSASVGDRVTITCRASQSVSSAVAWYQQKPGKAPKLLIYSASSLYSGVPSRFSGSRSGTDFTLTISSLQPEDFATYYCQQWGGGSSLFTFG needs its median fluorescence filled in; supply it.
## Output 5.52
